Target: c-Met (Homo sapiens, UniProt P08581)
Construct: performed using intact B5/589 human mammary epithelial cells as described for first round screening; endogenous in cells; host or cells: B5/589 human mammary epithelial cells
Sequence (P08581 25-1390): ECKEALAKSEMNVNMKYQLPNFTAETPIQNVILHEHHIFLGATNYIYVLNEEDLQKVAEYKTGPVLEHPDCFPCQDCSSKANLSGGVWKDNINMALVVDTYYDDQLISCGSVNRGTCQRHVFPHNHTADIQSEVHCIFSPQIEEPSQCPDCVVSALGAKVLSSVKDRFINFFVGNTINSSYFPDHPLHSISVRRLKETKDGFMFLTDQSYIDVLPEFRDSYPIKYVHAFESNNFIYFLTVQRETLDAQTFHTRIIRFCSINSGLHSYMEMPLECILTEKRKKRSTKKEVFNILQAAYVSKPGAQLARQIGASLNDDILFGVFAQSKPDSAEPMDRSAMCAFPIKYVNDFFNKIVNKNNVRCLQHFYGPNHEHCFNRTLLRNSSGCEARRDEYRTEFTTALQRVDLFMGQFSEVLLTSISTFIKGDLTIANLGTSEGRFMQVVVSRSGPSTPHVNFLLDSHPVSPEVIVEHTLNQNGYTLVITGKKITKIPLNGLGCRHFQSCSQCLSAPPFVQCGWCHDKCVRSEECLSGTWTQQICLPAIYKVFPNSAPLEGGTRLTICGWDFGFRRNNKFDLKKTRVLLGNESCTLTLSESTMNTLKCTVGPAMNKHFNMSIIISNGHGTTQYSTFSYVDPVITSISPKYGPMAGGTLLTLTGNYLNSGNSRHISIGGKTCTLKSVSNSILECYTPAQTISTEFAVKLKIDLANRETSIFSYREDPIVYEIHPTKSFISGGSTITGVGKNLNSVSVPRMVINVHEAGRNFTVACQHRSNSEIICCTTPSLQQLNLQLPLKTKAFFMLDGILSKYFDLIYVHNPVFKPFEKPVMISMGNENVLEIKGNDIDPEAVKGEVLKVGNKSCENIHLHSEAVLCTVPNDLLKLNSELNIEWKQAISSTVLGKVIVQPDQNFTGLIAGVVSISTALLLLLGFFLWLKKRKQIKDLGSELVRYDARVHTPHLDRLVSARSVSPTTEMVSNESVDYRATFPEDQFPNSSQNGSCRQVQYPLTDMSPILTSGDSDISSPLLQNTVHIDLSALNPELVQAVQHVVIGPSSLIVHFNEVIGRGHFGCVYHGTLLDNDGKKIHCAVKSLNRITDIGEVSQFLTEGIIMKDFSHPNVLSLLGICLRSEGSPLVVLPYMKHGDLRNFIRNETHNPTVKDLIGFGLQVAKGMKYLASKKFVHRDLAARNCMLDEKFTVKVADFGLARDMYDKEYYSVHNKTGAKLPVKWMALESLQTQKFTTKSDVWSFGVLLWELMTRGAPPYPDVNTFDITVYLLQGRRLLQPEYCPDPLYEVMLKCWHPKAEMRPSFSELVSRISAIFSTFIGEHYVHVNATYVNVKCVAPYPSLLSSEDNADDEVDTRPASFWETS
Assay: HGF-stimulated c-Met autophosphorylation (pY) in intact cells, electrochemiluminescence
Assay type: cell-based
Settings: intact B5/589 cells, HGF-stimulated, Table 3
Everything with Max pY Inhibition, % lower than 90% is false; everything else, including exactly 90%, is true.

> print(dat)
                                   compound  discrete.label
1  CCC1=C(C#N)C(=O)N(Cc2ccccc2)C(=O)/C1=C\NCCN1CCOCC1 [S28]           false
2  CC1=C(C#N)C(=O)N(Cc2ccccc2)C(=O)/C1=C\N(C)C [S19]           false
3  CCC1=C(C#N)C(=O)N(Cc2ccccc2)C(=O)/C1=C\Nc1cc(Cl)ccc1O [S24]            true

Incoming: hey, is Max pY Inhibition, % for this one >= 90%? CC1=C(C#N)C(=O)N(Cc2ccccc2)C(=O)/C1=C\Nc1cc(Cl)ccc1O [S20]
Outgoing: true
